studyTarget: UniProt Q16539
Sequence (Q16539 whole entry, looked up): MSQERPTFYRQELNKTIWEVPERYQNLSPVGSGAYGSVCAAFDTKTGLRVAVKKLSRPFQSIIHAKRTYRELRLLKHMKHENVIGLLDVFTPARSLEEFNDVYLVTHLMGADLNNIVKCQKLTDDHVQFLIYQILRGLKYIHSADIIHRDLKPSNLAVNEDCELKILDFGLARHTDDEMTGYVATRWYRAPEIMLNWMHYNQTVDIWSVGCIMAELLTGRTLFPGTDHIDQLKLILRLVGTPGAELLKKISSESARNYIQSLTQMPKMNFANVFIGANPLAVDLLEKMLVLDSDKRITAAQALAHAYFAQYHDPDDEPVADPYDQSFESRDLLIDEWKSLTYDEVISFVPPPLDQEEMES
pIC50: −log10 of the molar value.
measurementKind: pIC50

chemicalStructure: Cc1ccc(-n2nc(C(C)(C)C)cc2NC(=O)N[C@H]2CC[C@@H](Oc3ccc4nnc(C5(N(C)C)CCCC5)n4c3)c3ccccc32)cc1
measurementKind: pIC50
obsValue: > 8.00
//
chemicalStructure: C[C@@H]1CCCCN1c1nnc2ccc(O[C@@H]3CC[C@H](NC(=O)Nc4cc(C(C)(C)C)nn4-c4cccc(OCCN(C)C)c4)c4ccccc43)cn12
measurementKind: pIC50
obsValue: > 8.00
//
chemicalStructure: Cc1ccc(-n2nc(C(C)(C)C)cc2NC(=O)N[C@H]2CC[C@@H](Oc3ccc4nnc(N5CC[C@H](CO)C5)n4c3)c3ccccc32)cc1
measurementKind: pIC50
obsValue: > 8.00
